# PROTOCOL NOTES: passive permeability, PAMPA, ADME assay (AID 1508612)
# ASSAY SETUP: pH 7.4, 30.0 min, 50.0 µM
Please note: Papp exactly at 300 ×10⁻⁶ cm/s is NO. Only values below 300 ×10⁻⁶ cm/s get YES.

// below: answered compounds
Fc1ccc(-c2ccc(Nc3nc(-c4ccncc4)nc4ccccc34)cc2F)c(F)c1 | YES
Cc1cccc(NCc2ccc(O)c3ncccc23)c1 | YES
Cc1csc2nc(-c3cccc(NC(=O)c4ccccc4Cl)c3)cn12 | NO
O=C(NC1CCCc2c1[nH]c1ccc(Cl)cc21)c1ccncc1 (stereo not given) | YES
Cn1c(=O)c2cc(C(=O)NCCCN3CCN(c4ccccc4F)CC3)sc2c2ccccc21 | NO
Cc1cccc(-n2nc(C)c3c2NC(=O)CSC3c2ccccc2Cl)c1 (stereo not given) | NO
Nc1nc2c(s1)C(c1cccc(Cl)c1Cl)CC(=O)N2 (stereo not given) | NO
O=C(CCCc1ccc2cccnc2n1)NCc1cc(-c2ccc(F)c(C(F)(F)F)c2)no1 | NO

Now, please, on to the next compound.
query: Does the reported Papp of CN1CC=C(c2nc(Nc3ccc(F)c(F)c3)c3ccccc3n2)CC1 stay below 300 ×10⁻⁶ cm/s?
result: NO

====

# PROTOCOL NOTES: passive permeability, PAMPA, ADME assay (AID 1508612)
# ASSAY SETUP: pH 7.4, 30.0 min, 50.0 µM
REPORTED ENDPOINT: Papp (×10⁻⁶ cm/s)
Give the value in ×10⁻⁶ cm/s but do not write ×10⁻⁶ cm/s after it.

Previously resolved entries follow.
COCCNC(=O)c1ccc(-c2ncc3cnc(-c4cccc(F)c4)cn23)cc1 | 405
O=S(=O)(Nc1nccs1)c1ccc(NCc2cccc(F)c2O)cc1 | 2.11
NC(=O)Nc1cc(-c2ccc(CN3CCOCC3)cc2)sc1C(N)=O | 40.3
O=C(NC1CCCCC1)N1Cc2[nH]cnc2C[C@H]1c1nc(-c2cccc([N+](=O)[O-])c2)no1 | 202

Now for another entry.
query: # input molecule: COc1ccc2oc(NC3=NC(c4[nH]ncc4Cl)C4=C(CCCC4=O)N3)nc2c1 (stereo not given) ; wanted: its Papp
result: 706

====

# Papp annotations
# PROTOCOL NOTES: passive permeability, PAMPA, ADME assay (AID 1508612)
# ASSAY SETUP: pH 7.4, 30.0 min, 50.0 µM
// note: answer is a bare numeric in ×10⁻⁶ cm/s

CNS(=O)(=O)c1cc(-c2nn3c(C)nnc3c3ccccc23)ccc1C | 146
CC(C)C(=O)Nc1cccc(NC(=O)c2cc3ccccc3o2)c1 | 874
COc1ccc(C2CC(=O)Nc3nc(N)sc32)cc1OC (stereo unspecified) | 36.1
Cc1ccnc(NC(=O)C2CC(=O)N(c3n[nH]c4cc(Br)ccc34)C2)c1 (stereo unspecified) | 563
O=C(NCCN1CCOCC1)C1CC(=O)N(c2n[nH]c3cc(Br)ccc23)C1 (stereo unspecified) | 1.8

query: Which measured Papp value corresponds to Cc1ccccc1C(=O)N1CCc2cc(-n3cc(NC(=O)Cc4ccccc4)cn3)ccc21 ?
result: 82.6

query: Can you handle CCCN1C(CC(C)C)=NS(=O)(=O)c2cc(NC(=O)c3ccco3)ccc21 next?
result: 427

query: Then this compound: CCCCC1CCC(C(=O)Nc2ccc(S(=O)(=O)Nc3nccs3)cc2)CC1 (stereo unspecified)
result: 587

query: Next entry: CCOc1ccc(NC(=O)CC2C(=O)N(c3ccc(F)cc3)C(=O)N2CCc2sccc2C)cc1 (stereo unspecified)
result: 927

query: Another compound: Cc1noc(C)c1S(=O)(=O)Nc1cnccc1C(=O)Nc1nc(-c2ccccc2)cs1
result: 339

query: And Clc1ccc2ncc(-c3cccc(NC4CCNC4)n3)n2c1 (stereo unspecified) ?
result: 332
